Data origin: patent US12570687B2

System: A431 (epidermoid carcinoma)
Assay Overview: MTT antiproliferative assay, A431
Assay type: cell-based
Measurement Context: Homo sapiens, A-431, A431, 10 μM, 48 or 72 h, read-out: inhibition of cell growth, A431
Procedure: The antiproliferative activity of a test compound was determined in cell lines: MDA-MB-231 (breast cancer), HepG2 (liver cancer), SW620 (colon cancer), A375 (malignant melanoma), A431 (epidermoid carcinoma), A549 (lung adenocarcinoma), and HeLa (ovarian cancer). […] Briefly cells were seeded in a 96 well plate at a density of 2,000-5,000 cells/well. […] The plate was shaken for 15-20 min and the absorbance value of each well was determined using a multi-well plate reader at 490 nm. […]

Molecule	inhibition at 10 µM
CO[C@@]1(C)C2=CC=C3[C@@](C)(CC[C@@]4(C)[C@@H]5C[C@](C)(C(=O)O)CC[C@]5(C)CC[C@]34C)C2=CC(=O)[C@@H]1O	50 to 80%
CO[C@]1(C)C(=O)C2(C=C3C1=CC=C1[C@@]3(C)CC[C@@]3(C)[C@@H]4C[C@](C)(C(=O)O)CC[C@]4(C)CC[C@]13C)OCCO2	< 30%
CO[C@@]1(C)C2=CC=C3[C@@](C)(CC[C@@]4(C)[C@@H]5C[C@](C)(C(=O)O)CC[C@]5(C)CC[C@]34C)C2=CC2(O)OCCN=C21 (some centres unmarked)	≥ 80%
COC(=O)[C@]1(C)CC[C@]2(C)CC[C@]3(C)C4=CC=C5C(=C/C(=C\C#N)C(=O)C5(C)O)[C@]4(C)CC[C@@]3(C)[C@@H]2C1 (some centres unmarked)	≥ 80%
CO[C@@]1(C)C2=CC=C3[C@@](C)(CC[C@@]4(C)[C@@H]5C[C@](C)(C(=O)NO)CC[C@]5(C)CC[C@]34C)C2=CC(=O)[C@@H]1O	≥ 80%

###

Test system: A549 (lung adenocarcinoma)
Assay Overview: MTT antiproliferative assay, A549
Format: cell-based
Measurement Context: Homo sapiens, A549, 10 μM, 48 or 72 h, read-out: inhibition of cell growth, A549
Method: The antiproliferative activity of a test compound was determined in cell lines: MDA-MB-231 (breast cancer), HepG2 (liver cancer), SW620 (colon cancer), A375 (malignant melanoma), A431 (epidermoid carcinoma), A549 (lung adenocarcinoma), and HeLa (ovarian cancer). […] Briefly cells were seeded in a 96 well plate at a density of 2,000-5,000 cells/well. […] The plate was shaken for 15-20 min and the absorbance value of each well was determined using a multi-well plate reader at 490 nm. […]
Attribute Measured: inhibition at 10 µM

Test Smiles	Val
CO[C@]1(C)C(=O)C(=O)C=C2C1=CC=C1[C@@]2(C)CC[C@@]2(C)[C@@H]3C[C@](C)(C(=O)On4nnc5ccccc54)CC[C@]3(C)CC[C@]12C	50 to 80%
CO[C@]1(C)C(=O)C(=O)C=C2C1=CC=C1[C@@]2(C)CC[C@@]2(C)[C@@H]3C[C@](C)(C(=O)NCCO)CC[C@]3(C)CC[C@]12C	≥ 80%
CO[C@]1(C)C(=O)C(=O)C=C2C1=CC=C1[C@@]2(C)CC[C@@]2(C)[C@@H]3C[C@](C)(C(=O)OCc4ccccc4)CC[C@]3(C)CC[C@]12C	< 30%

###

System: HepG2 (liver cancer)
Assay Overview: MTT antiproliferative assay, HepG2
Type: cell-based
Measurement Context: Homo sapiens, HepG2, 10 μM, 48 or 72 h, read-out: inhibition of cell growth, HepG2

Compound	inhibition at 10 µM
CO[C@]1(C)C(=O)C(=O)C=C2C1=CC=C1[C@@]2(C)CC[C@@]2(C)[C@@H]3C[C@](C)(C(=O)NCCO)CC[C@]3(C)CC[C@]12C	≥ 80%
CNC(=O)[C@]1(C)CC[C@]2(C)CC[C@]3(C)C4=CC=C5C(=CC(=O)[C@H](O)[C@@]5(C)OC)[C@]4(C)CC[C@@]3(C)[C@@H]2C1	≥ 80%
CO[C@]1(C)C(=O)C(=O)C=C2C1=CC=C1[C@@]2(C)CC[C@@]2(C)[C@@H]3C[C@](C)(C(N)=O)CC[C@]3(C)CC[C@]12C	50 to 80%
CO[C@]1(C)C(=O)C(=O)C=C2C1=CC=C1[C@@]2(C)CC[C@@]2(C)[C@@H]3C[C@](C)(CO)CC[C@]3(C)CC[C@]12C	< 30%
CO[C@]1(C)C(=O)C(=O)C=C2C1=CC=C1[C@@]2(C)CC[C@@]2(C)[C@@H]3C[C@](C)(C(=O)O)CC[C@]3(C)CC[C@]12C	50 to 80%
CO[C@@]1(C)C2=CC=C3[C@@](C)(CC[C@@]4(C)[C@@H]5C[C@](C)(CO)CC[C@]5(C)CC[C@]34C)C2=CC(=O)[C@@H]1O	≥ 80%
CO[C@@]1(C)C2=CC=C3[C@@](C)(CC[C@@]4(C)[C@@H]5C[C@](C)(C(=O)O)CC[C@]5(C)CC[C@]34C)C2=CC(=NO)[C@@H]1O	< 30%
CO[C@@]1(C)C2=CC=C3[C@@](C)(CC[C@@]4(C)[C@@H]5C[C@](C)(C(=O)O)CC[C@]5(C)CC[C@]34C)C2=CC(=O)/C1=C/C#N	50 to 80%
CO[C@@]1(C)C2=CC=C3[C@@](C)(CC[C@@]4(C)[C@@H]5C[C@](C)(C(=O)O)CC[C@]5(C)CC[C@]34C)C2=CC2(O)OCCN=C21 (stereo partly shown)	≥ 80%
COC(=O)[C@]1(C)CC[C@]2(C)CC[C@]3(C)C4=CC=C5C(=CC(=O)C(=O)C5(C)O)[C@]4(C)CC[C@@]3(C)[C@@H]2C1 (stereo partly shown)	≥ 80%
CCNC(=O)[C@]1(C)CC[C@]2(C)CC[C@]3(C)C4=CC=C5C(=CC(=O)C(=O)[C@@]5(C)OC)[C@]4(C)CC[C@@]3(C)[C@@H]2C1	50 to 80%
COC1(C)C2=CC=C3[C@@](C)(CC[C@@]4(C)[C@@H]5C[C@](C)(C(=O)O)CC[C@]5(C)CC[C@]34C)C2=CC(=O)C1CC#N (stereo in doubt)	< 30%
CO[C@@]1(C)C2=CC=C3[C@@](C)(CC[C@@]4(C)[C@@H]5C[C@](C)(C(N)=O)CC[C@]5(C)CC[C@]34C)C2=CC(=O)[C@@H]1O	≥ 80%
COC(=O)[C@]1(C)CC[C@]2(C)CC[C@]3(C)C4=CC=C5C(=CC(=O)C(O)C5(C)O)[C@]4(C)CC[C@@]3(C)[C@@H]2C1 (stereo partly shown)	≥ 80%
CO[C@@]1(C)C2=CC=C3[C@@](C)(CC[C@@]4(C)[C@@H]5C[C@](C)(C=O)CC[C@]5(C)CC[C@]34C)C2=CC(=O)[C@@H]1O	50 to 80%
[2H]C([2H])([2H])O[C@]1(C)C(=O)C(=O)C=C2C1=CC=C1[C@@]2(C)CC[C@@]2(C)[C@@H]3C[C@](C)(C(=O)O)CC[C@]3(C)CC[C@]12C	50 to 80%
CO[C@]1(C)C(=O)C(=O)C=C2C1=CC=C1[C@@]2(C)CC[C@@]2(C)[C@@H]3C[C@](C)(C(=O)NO)CC[C@]3(C)CC[C@]12C	≥ 80%
CO[C@@]1(C)C2=CC=C3[C@@](C)(CC[C@@]4(C)[C@@H]5C[C@](C)(C(=O)O)CC[C@]5(C)CC[C@]34C)C2=CC(=O)C1=NNC(=O)c1ccncc1	< 30%
CO[C@@]1(C)C2=CC=C3[C@@](C)(CC[C@@]4(C)[C@@H]5C[C@](C)(C(=O)O)CC[C@]5(C)CC[C@]34C)C2=CC(=O)C1=NNC(C)=O	< 30%
CNC(=O)[C@]1(C)CC[C@]2(C)CC[C@]3(C)C4=CC=C5C(=CC(=O)C(=O)[C@@]5(C)OC)[C@]4(C)CC[C@@]3(C)[C@@H]2C1	50 to 80%
COC(=O)[C@]1(C)CC[C@]2(C)CC[C@]3(C)C4=CC=C5C(=CC(=O)[C@H](O)[C@@]5(C)OC)[C@]4(C)CC[C@@]3(C)[C@@H]2C1	≥ 80%
CNC1(O)C(=O)C=C2C(=CC=C3[C@@]2(C)CC[C@@]2(C)[C@@H]4C[C@](C)(C(=O)OC)CC[C@]4(C)CC[C@]32C)[C@]1(C)OC (stereo partly shown)	30 to 50%
